- System: HOP-62 NSCLC
- method summary: NCI-60 one-dose screen, 48 h
- condition label: 10 µM unless noted
About 83,000 compounds went through this panel and 20% of them were active in at least one assay; those are over-represented in the sample as a whole. Activity calls are given as the source filed them. Rule for the calls: active = growth percent below 10; inactive = the rest.
Labels: active, inactive

| compound | qualitative label |
| --- | --- |
| Nc1ccc(Cl)c2c(=O)c3ccccc3[nH]c12 | inactive |
| CCCCC1=C(Br)C(=O)c2ncccc2C1=O | inactive |
| Cc1c(C)c2c(c(C)c1OC(=O)CCC(=O)[O-])CCC(C)(CCCCCCCCCCC[P+](c1ccccc1)(c1ccccc1)c1ccccc1)O2 (stereo not given) | active |
| Cc1cccc(CN(Nc2ccccc2)c2ccccc2)n1 | inactive |
| COc1ccc(-c2cc(-c3ccc(N(C)C)cc3)nc(NC(=O)c3cccnc3)n2)cc1 | inactive |
| CCOC(=O)c1c(C)c2c(n1Cc1ccccc1)CSc1cc(C#N)c(=O)[nH]c1-2 | inactive |
| COC(=O)c1cc(-c2cc(OC)c(OC)c(OC)c2)[nH]c1N/N=C/c1c(Cl)cccc1Cl | active |
| CCCCCCCCOC(=O)c1c(C)[nH]c(/C=C2\N=C(c3ccc[nH]3)C=C2OC)c1C | inactive |
| C/C(=C(\c1ccc(OCCCN(C)C)cc1)c1ccc(OC(=O)Cc2ccccc2)cc1)c1ccc(Cl)cc1 | inactive |
| COc1ccc(CNc2c3ccccc3nc3ccccc23)cc1OC | inactive |
| Cn1ncc(CC(=O)O)c1-n1nnc2cc(Cl)ccc2c1=O | inactive |
| FC(F)(F)c1cc(N2CCCCC2)nc(NCCCNc2ccnc3cc(Cl)ccc23)n1 | inactive |
| CCN(CC)CCOc1ccc(/C(=C(\C)Cc2ccc(OC)cc2)c2ccc(O)cc2)cc1 | inactive |
| CCOC(=O)c1cnc2sc(-c3ccc(OC)cc3)nc2c1Cl | inactive |
| C=CC(=O)NCc1cccc(Nc2ncc(Br)c(NCCCNC(=O)C3CCC3)n2)c1 | active |
| CCOC(=O)CCC(=O)P(=O)(O)O | inactive |
| Cc1cc2c(C(C)C)c(O)c(O)c(/C=N/O)c2c(O)c1-c1c(C)cc2c(C(C)C)c(O)c(O)c(/C=N/O)c2c1O | inactive |
| COc1cccc(-c2cc(-c3ccc(Nc4nc(Nc5ccc(Cl)cc5)nc(Nc5ccc(Cl)cc5)n4)cc3)nc(N)c2C#N)c1 | inactive |
| CC(C)=CC(=O)C1C(=O)c2ccccc2C1=O | inactive |
| COc1ccc(-c2nc3cc(C(=O)NC4CCCCC4)ccc3n2C2CCCCC2)cc1 | inactive |

* * *

- Tested on: HS 578T breast
- method summary: NCI-60 one-dose screen, 48 h
- condition label: 10 µM unless noted
This is part of a sample that, as a whole, favours compounds with a hit. Of some 83,000 tested, about 20% had one in any assay. Active and inactive are the calls of the source. The calls were made as follows: active = growth percent below 10; inactive = the rest.
Labels: active, inactive

| compound | target | qualitative label |
| --- | --- | --- |
| C#CCOc1cccc(Nc2ncnc3c(NC(=O)CCl)cccc23)c1 | HS 578T breast | inactive |
| O=S(=O)(Nc1ccc(Br)cc1)c1ccc(-c2cnc(C3CC3)o2)cc1 | HS 578T breast | active |
| COc1ccc(-c2nc3cc(C(=O)NC4CCCCC4)ccc3n2C2CCCCC2)cc1 | HS 578T breast | inactive |
| Cc1ccc(C(=O)Nc2ccc(CN3CCN(C)CC3)c(C(F)(F)F)c2)cc1C#Cc1cnc(N)c2ccccc12 | HS 578T breast | active |
| CC/C(=C(/c1ccc(Cl)cc1)c1ccc(OCCCN(C)C)cc1)c1ccc(OC)cc1 | HS 578T breast | inactive |
| CCOC(=O)c1c(N)sc2cc(O)ccc12 | HS 578T breast | inactive |
| C#Cc1c(I)n(C2OC(CO[Si](C)(C)C(C)(C)C)C3OC(C)(C)OC32)c(=O)[nH]c1=O (stereo not given) | HS 578T breast | active |
| CN(C)CCOc1nc2c3cc([N+](=O)[O-])ccc3nn2c2ccccc12 | HS 578T breast | inactive |
| Cc1nn(C)c2ncnc(Nc3ccccc3Br)c12 | HS 578T breast | inactive |
| O=C(NC1CCCCCC1)c1ccc2c(=O)n3c(nc2c1)CCCCC3 | HS 578T breast | inactive |

Hey, just so you know, these numbers are from PubChem BioAssay (NCI).
